Method Notes: qHTS of pediatric cancer cell lines to identify multiple opportunities for drug repurposing: Primary screen for U-2 OS cells (AID 1347096); also: nearly all actives have a fitted effect of over 50% in size; also: potency is read from the fitted curve at half-maximal effect
Conditions: U-2 OS viability, CellTiter-Glo luminescence, 48 h; series mostly up to 46 µM
Records with an inconclusive call do not appear. Active and inactive are the calls of the source. Calls follow the shape of the dose curve; as a rule, active = well fitted cell-killing curve with a large enough effect; inconclusive = small, poorly fitted or top-dose-only effect; inactive = flat fitted curve, though single readings scatter.
Reported Endpoint: Potency

                                   compound                 val
0  Cc1onc(-c2ccccc2)c1C(=O)N[C@@H]1C(=O)N2[C@@H](C(=O)O)C(C)(C)S[C@@H]12            inactive
1     N#CNC(=NCCCCCCOc1ccc(Cl)cc1)Nc1ccncc1  0.0187 µM (active)
2  Nc1nc(=O)n([C@H]2CSC(CO)O2)cc1F (stereo not given in full)            inactive
3  CCCCCCCCCCCCCCCC(=O)OC[C@@H](NC(=O)C(Cl)Cl)[C@H](O)c1ccc([N+](=O)[O-])cc1            inactive
4  Nc1ccn(C2CO[C@H](CO)O2)c(=O)n1 (stereo not given in full)            inactive

###

Method Notes: qHTS drug screen for cell cycle checkpoint inhibitors in PARPi-resistant BRCA-mutant ovarian cancer cell lines. (AID 1963452)
Conditions: PEO1/OlaR viability, CellTiter-Glo luminescence, 96 h; measured here: PEO1 parental Z-AUC; stronger effect = lower value
The label is criterion met for Z-AUC below 0.7 and criterion not met for Z-AUC equal to or exceeding 0.7.

                                smiles_text           category
0  c1ccc2c(Oc3nc(Nc4ccc(N5CCOCC5)cc4)c4ncn(C5CCCCC5)c4n3)cccc2c1  criterion not met
1  Nc1nc(N)c2nc(-c3cccc(O)c3)c(-c3cccc(O)c3)nc2n1  criterion not met
2  O=C(NC1CC1)c1cccc(-c2ccc3c(NC(=O)C4CC4)n[nH]c3c2)c1      criterion met
3               COc1ccc(Nc2nccc(NCCO)n2)cc1  criterion not met

###

Method Notes: Quantitative High-Throughput drug screen in 47 multiple myeloma cell lines against the NCATS MIPE library collection: OCIMY1_PLB cell viability assay (AID 1918979); also: nearly all actives have a fitted effect of over 35% in size; also: potency is read from the fitted curve at half-maximal effect
Conditions: OCI-MY1 myeloma viability, CellTiter-Glo ATP, 48 h; series mostly up to 45.8 µM
Records with an inconclusive call do not appear. Active and inactive are the calls of the source. Calls follow the shape of the dose curve; as a rule, active = well fitted cell-killing curve with a large enough effect; inconclusive = small, poorly fitted or top-dose-only effect, or effect the other way; inactive = no such curve, though single readings can be large or run the other way. Non-standard residues stand in square brackets, D forms with d. Residues, ends and D or L forms follow the SMILES beside them. *: point of attachment. Nva = CCC[C@H](N)C(=O)O; Cbz = O=C(OCc1ccccc1)*
Reported Endpoint: Potency

Compound	Val
COc1cccc2c1C(=O)c1c(O)c3c(c(O)c1C2=O)C[C@@](O)(C(C)=O)C[C@H]3O[C@H]1C[C@H](N)[C@H](O)[C@H](C)O1	0.332 µM (active)
CCN(CC)CCNC(=O)c1c(C)[nH]c(C=C2C(=O)Nc3ccc(F)cc32)c1C	13.6 µM (active)
CCc1cnn2c(NCc3ccc[n+]([O-])c3)cc(N3CCCC[C@@H]3CCO)nc12	0.0332 µM (active)
COc1cc(C)c(C=CC(C)=CC=CC(C)=CC(=O)O)c(C)c1C	inactive
O=C1c2cccc(O)c2C(=O)c2c(O)cc(CO)cc21	inactive
CON=C(C(=O)N[C@@H]1C(=O)N2C(C(=O)O)=C(CSC(=O)c3ccco3)CS[C@H]12)c1csc(N)n1	inactive
CCOC(=O)[C@@H](N)Cc1ccc(-c2cc(O[C@H](c3ccc(Cl)cc3-n3ccc(C)n3)C(F)(F)F)nc(N)n2)cc1	18.7 µM (active)
CN1C(C(=O)Nc2ccccn2)=C(O)c2sc(Cl)cc2S1(=O)=O	inactive
CC(=O)OCC(=O)[C@@]1(O)CC[C@H]2[C@@H]3CCC4=CC(=O)CC[C@]4(C)[C@@H]3C(=O)C[C@@]21C	inactive
CC[C@H]1OC(=O)[C@H](C)[C@@H](O[C@H]2C[C@@](C)(OC)[C@@H](O)[C@H](C)O2)[C@H](C)[C@@H](O[C@@H]2O[C@H](C)C[C@H](N(C)C)[C@@H]2O)[C@](C)(OC)C[C@@H](C)C(=O)[C@H](C)[C@@H](O)[C@]1(C)O	inactive
CN[C@H](CC(C)C)C(=O)N[C@H]1C(=O)N[C@@H](CC(N)=O)C(=O)N[C@@H]2C(=O)N[C@H]3C(=O)N[C@H](C(=O)N[C@H](C(=O)O)c4cc(O)cc(O)c4-c4cc3ccc4O)[C@H](O)c3ccc(c(Cl)c3)Oc3cc2cc(c3O[C@@H]2O[C@H](CO)[C@@H](O)[C@H](O)[C@@H]2O[C@H]2C[C@](C)(N)[C@H](O)[C@H](C)O2)Oc2ccc(cc2Cl)[C@H]1O	inactive
CCC[C@@H](C=O)NC(=O)[C@H](CC(C)C)NC(=O)[C@H](CC(C)C)NC(=O)OCc1ccccc1 (Cbz-Leu-Leu-[Nva]-aldehyde)	0.743 µM (active)
O=C(O)C=Cc1ccc(Cn2ccnc2)cc1	inactive
CC(=O)O[C@H]1C[C@@H]2CC[C@H]3[C@H]4C[C@H]([N+]5(C)CCCCC5)[C@@H](OC(C)=O)[C@@]4(C)CC[C@@H]3[C@@]2(C)C[C@H]1[N+]1(C)CCCCC1	inactive
c1cc(N[C@@H]2CCNC2)nc(-c2cnc3ccc(-c4cn[nH]c4)cn23)c1	inactive
CC(=O)OC[C@@H]1O[C@@H](n2ccc(=O)[nH]c2=O)[C@H](OC(C)=O)[C@H]1OC(C)=O	inactive
N#CC(=Cc1ccc(O)c(O)c1)C(=O)NCc1ccccc1	inactive
CN(C)CCN1C(=O)c2cccc3cc(N)cc(c23)C1=O	23.5 µM (active)
CO[C@@H]1[C@@H](O)[C@H](O)[C@@H](n2c3c(Cl)cccc3c3c4c(c5c6cccc(Cl)c6[nH]c5c32)C(=O)NC4=O)O[C@@H]1CO	2.35 µM (active)
CC(C=CC1=C(C)CCCC1(C)C)=CC=CC(C)=CC(=O)Nc1ccc(O)cc1	21.5 µM (active)
C[C@H]1COc2c(N3CCN(C)CC3)c(F)cc3c(=O)c(C(=O)O)cn1c23	inactive
CC(C)(O)[C@H]1CC[C@@](C)([C@H]2[C@@H](O)C[C@@]3(C)[C@@H]4C[C@H](O[C@@H]5O[C@H](CO)[C@@H](O)[C@H](O)[C@@H]5O)[C@H]5C(C)(C)[C@@H](O[C@@H]6OC[C@@H](O)[C@H](O)[C@@H]6O)CC[C@@]56C[C@@]46CC[C@]23C)O1	inactive
C[C@@]12C(=O)OC(=O)[C@@]1(C)C1CCC2O1	5.26 µM (active)
CN[C@@H]1C[C@H]2O[C@@](C)([C@H]1OC)n1c3ccccc3c3c4c(c5c6ccccc6n2c5c31)C(=O)N[C@H]4O	0.935 µM (active)
CCC(C(=O)O)C1CCC(C)C(C(C)C(O)C(C)C(=O)C(CC)C2OC3(C=CC(O)[C@@]4(CC[C@](C)(C5CC[C@@](O)(CC)C(C)O5)O4)O3)C(C)CC2C)O1 (stereo not given in full)	5.26 µM (active)
Cc1cc(C(=O)NOCCO)c(Nc2ccc(I)cc2F)n(C)c1=O	inactive
COc1cc(C)c(Sc2cnc(NC(=O)c3ccc(CNC(C)C(C)(C)C)cc3)s2)cc1C(=O)N1CCN(C(C)=O)CC1 (stereo not given)	14.8 µM (active)
C=CC(=O)Nc1cccc(Nc2nc(NC3CCC(N(C)C)CC3)nc3c2ncn3C(C)C)c1 (stereo not given)	4.69 µM (active)
N[C@H]1CN(c2c(F)cc3c(=O)c(C(=O)O)cn(C4C[C@@H]4F)c3c2Cl)CC12CC2 (stereo not given in full)	inactive
COc1cc(C=CC(=O)CC(=O)C=Cc2ccc(O)c(OC)c2)ccc1O	21.5 µM (active)

###

Method Notes: Quantitative High-Throughput drug screen in 47 multiple myeloma cell lines against the NCATS MIPE library collection: L363_DSMZ cell viability assay (AID 1918984); also: nearly all actives have a fitted effect of over 40% in size
Conditions: L363 myeloma viability, CellTiter-Glo ATP luminescence, 48 h; series mostly up to 45.8 µM
Inconclusive results are not listed. Calls of active or inactive are those of the source. Calls follow the shape of the dose curve; as a rule, active = well fitted cell-killing curve with a large enough effect; inconclusive = small, poorly fitted or top-dose-only effect, or effect the other way; inactive = no such curve, though single readings can be large or run the other way.
Outcome codes: active, inactive

Smiles Text	Category
C=CC[C@@H]1C=C(C)C[C@H](C)C[C@H](OC)[C@H]2O[C@@](O)(C(=O)C(=O)N3CCCC[C@H]3C(=O)O[C@H](C(C)=C[C@@H]3CC[C@H](O)[C@H](OC)C3)[C@@H](C)[C@@H](O)CC1=O)[C@@H](C)C[C@@H]2OC	active
CC(=O)O[C@H]1C[C@@H]2CC[C@H]3[C@H]4C[C@H]([N+]5(C)CCCCC5)[C@@H](OC(C)=O)[C@@]4(C)CC[C@@H]3[C@@]2(C)C[C@H]1N1CCCCC1	inactive
C=C(C)[C@@H]1CC[C@]2(C(=O)O)CC[C@]3(C)[C@H](CC[C@@H]4[C@@]5(C)CC[C@H](O)C(C)(C)[C@@H]5CC[C@]43C)[C@@H]12	inactive
O=c1[nH]c(=O)n([C@H]2C[C@@H](O)[C@@H](CO)O2)cc1C=CBr	inactive
